From: patent US20140242080A1

# ASSAYED_SYSTEM: T1, hu-MCSP(D3 domain)-avi-his (human, UniProt Q6UVK1 1582-2224)
# T1 construct: Recombinant D3 domain with avi and his tags; also called human MCSP(D3 domain)-avi-his; Human MCSP D3
# T1 sequence: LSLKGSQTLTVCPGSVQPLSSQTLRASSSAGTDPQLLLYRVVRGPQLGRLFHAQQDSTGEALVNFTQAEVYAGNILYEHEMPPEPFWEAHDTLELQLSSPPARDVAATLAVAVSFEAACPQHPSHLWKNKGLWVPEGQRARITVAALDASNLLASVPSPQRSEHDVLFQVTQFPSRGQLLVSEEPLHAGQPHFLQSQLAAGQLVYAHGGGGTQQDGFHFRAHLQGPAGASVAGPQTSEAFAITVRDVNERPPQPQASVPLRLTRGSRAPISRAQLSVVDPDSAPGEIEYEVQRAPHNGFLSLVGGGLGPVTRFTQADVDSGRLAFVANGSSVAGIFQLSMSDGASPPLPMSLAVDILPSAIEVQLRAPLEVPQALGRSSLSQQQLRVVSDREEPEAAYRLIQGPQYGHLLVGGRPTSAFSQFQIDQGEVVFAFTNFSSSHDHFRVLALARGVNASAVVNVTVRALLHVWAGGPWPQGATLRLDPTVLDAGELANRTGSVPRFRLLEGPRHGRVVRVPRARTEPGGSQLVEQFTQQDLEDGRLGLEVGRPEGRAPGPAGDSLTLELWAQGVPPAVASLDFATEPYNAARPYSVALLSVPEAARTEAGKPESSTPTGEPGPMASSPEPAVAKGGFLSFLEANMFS
# TEST_DETAILS: ratio of ProteOn IgG KD, parent M4-3/ML2 against variant
PROPERTY_LABEL: Fold increase over parent

[ask] So what does the record say about Fold increase over parent for M4-3/ML2(C5/G3) IgG (antibody, V domains shown, Human IgG1) VH: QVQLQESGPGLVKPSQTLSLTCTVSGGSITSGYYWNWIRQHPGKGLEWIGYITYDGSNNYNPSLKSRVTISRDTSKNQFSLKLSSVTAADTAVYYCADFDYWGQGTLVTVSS VL: DIQMTQSPSSLSASVGDRVTITCRASRGIREYLNWYQQKPGKAPKLLIYYTGSLHSGVPSRFSGSGSGTDFTLTISSLQPEDFATYYCQQYSALPWTFGQGTKVEIK ?
[reply] 2.9 fold

[ask] So what does the record say about Fold increase over parent for M4-3(B8)/ML2 IgG (antibody, V domains shown, Human IgG1) VH: QVQLQESGPGLVKPSQTLSLTCTVSGGSITSGYYWNWIRQHPGKGLEWIGYITFDGRNNYNPSLKSRVTISRDTSKNQFSLKLSSVTAADTAVYYCADFDYWGQGTLVTVSS VL: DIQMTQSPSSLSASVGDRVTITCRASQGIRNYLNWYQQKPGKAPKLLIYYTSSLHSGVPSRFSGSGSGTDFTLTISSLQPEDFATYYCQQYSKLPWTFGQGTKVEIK ?
[reply] 2.2 fold

[ask] So what does the record say about Fold increase over parent for M4-3(D6)/ML2 IgG (antibody, V domains shown, Human IgG1) VH: QVQLQESGPGLVKPSQTLSLTCTVSGGSITSGYYWNWIRQHPGKGLEWIGYITFDGKNNYNPSLKSRVTISRDTSKNQFSLKLSSVTAADTAVYYCADFDYWGQGTLVTVSS VL: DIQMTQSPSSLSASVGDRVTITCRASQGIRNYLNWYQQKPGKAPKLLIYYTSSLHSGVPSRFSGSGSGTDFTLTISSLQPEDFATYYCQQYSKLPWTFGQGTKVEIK ?
[reply] 5 fold

[ask] So what does the record say about Fold increase over parent for M4-3(A7)/ML2(G3) IgG (antibody, V domains shown, Human IgG1) VH: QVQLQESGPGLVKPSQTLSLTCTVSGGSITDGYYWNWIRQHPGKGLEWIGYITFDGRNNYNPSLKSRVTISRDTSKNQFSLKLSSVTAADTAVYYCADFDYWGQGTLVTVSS VL: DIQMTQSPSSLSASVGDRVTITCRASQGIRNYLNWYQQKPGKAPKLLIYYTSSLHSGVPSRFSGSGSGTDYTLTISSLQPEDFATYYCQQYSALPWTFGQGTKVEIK ?
[reply] 28.6 fold

[ask] So what does the record say about Fold increase over parent for M4-3(C1)/ML2(E10) IgG (antibody, V domains shown, Human IgG1) VH: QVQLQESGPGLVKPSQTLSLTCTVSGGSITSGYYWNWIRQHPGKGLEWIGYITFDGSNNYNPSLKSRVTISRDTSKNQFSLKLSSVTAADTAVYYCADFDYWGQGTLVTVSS VL: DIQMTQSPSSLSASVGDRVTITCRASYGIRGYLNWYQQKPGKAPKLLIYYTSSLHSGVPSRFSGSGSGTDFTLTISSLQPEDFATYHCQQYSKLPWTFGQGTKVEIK ?
[reply] 4 fold

[ask] So what does the record say about Fold increase over parent for M4-3(C1)/ML2(G3) IgG (antibody, V domains shown, Human IgG1) VH: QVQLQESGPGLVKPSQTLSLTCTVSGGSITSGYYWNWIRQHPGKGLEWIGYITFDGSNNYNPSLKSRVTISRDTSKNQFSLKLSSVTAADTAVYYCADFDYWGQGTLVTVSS VL: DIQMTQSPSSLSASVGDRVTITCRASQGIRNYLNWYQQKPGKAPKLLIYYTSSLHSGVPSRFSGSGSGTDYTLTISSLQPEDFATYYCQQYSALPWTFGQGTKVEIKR ?
[reply] 28.6 fold
